# targetUnderTest: human cGAS (residues 161-522) (Homo sapiens (Human), UniProt Q8N884)
# Sequence (Q8N884 161-522): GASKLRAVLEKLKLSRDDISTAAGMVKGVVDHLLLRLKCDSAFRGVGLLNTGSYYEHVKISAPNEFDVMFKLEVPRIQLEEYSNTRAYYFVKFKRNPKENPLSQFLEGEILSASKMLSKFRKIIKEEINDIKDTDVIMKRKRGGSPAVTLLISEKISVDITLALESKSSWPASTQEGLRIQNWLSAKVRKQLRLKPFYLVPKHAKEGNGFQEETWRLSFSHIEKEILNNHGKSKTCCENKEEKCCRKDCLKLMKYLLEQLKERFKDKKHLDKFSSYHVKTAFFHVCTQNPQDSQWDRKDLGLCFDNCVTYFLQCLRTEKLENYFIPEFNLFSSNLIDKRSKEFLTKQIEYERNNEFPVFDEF
# assayDetails: Malachite Green assay to measure cGAS activity (coupled enzymatic assay, phosphate detection)
# protocolConditions: recombinant human cGAS (residues 161-522) 25 nM, 80 μM GTP, 100 nM ISD, 4 hour at RT, absorbance 620 nm
pIC50: −log10 of the molar value.
Decision: pIC50 >= 6 yields MET, all other cases yield NOT MET.

- CCN(CC)Cc1nc2c(C(=O)O)cc(-c3ccc(C)cc3Cl)cc2[nH]1 [Example 23]: MET
- Cc1ccc(-c2cc(C(=O)O)c3nc(CN4CCNC(=O)C4)[nH]c3c2)c(Cl)c1 [Example 20]: MET
- Cc1cc(Cl)ccc1-c1cc(C(=O)O)c2nc[nH]c2c1 [Example 6]: NOT MET

====

# targetUnderTest: human cGAS (residues 161-522) (Homo sapiens (Human))
# assayDetails: Malachite Green assay to measure cGAS activity (coupled enzymatic assay, phosphate detection)
# protocolConditions: recombinant human cGAS (residues 161-522) 25 nM, 80 μM GTP, 100 nM ISD, 4 hour at RT, absorbance 620 nm
assayReadout: IC50 (nM)

* Cc1ccc(-c2cc(C(=O)O)c3nc(CN4CCN(C)CC4=O)[nH]c3c2)c(Cl)c1 [Example 12] | 1140
* Cc1ccc(-c2cc(C(=O)O)c3nc(C(F)(F)F)[nH]c3c2)c(Cl)c1 [Example 30] | 3020
* Cc1ccc(-c2cc(C(=O)O)c3nc(CN(C)C)[nH]c3c2)c(Cl)c1 [Example 29] | 590
* Cc1ccc(-c2cc(C(=O)O)c3nc(CN4CCN(Cc5ccccc5)CC4)[nH]c3c2)c(Cl)c1 [Example 18] | 140
* Cc1ccc(-c2cc(C(=O)O)c3nc(Nc4ccccc4)[nH]c3c2)c(Cl)c1 [Example 14] | 1160
* Cc1ccc(-c2cc(C(=O)O)c3nc(Cc4ccc(Cl)cc4)[nH]c3c2)c(Cl)c1 [Example 27] | 1480
* Cc1ccc(-c2cc(C(=O)O)c3nc(CN4CCNC(C(F)(F)F)C4)[nH]c3c2)c(Cl)c1 (centres unmarked) [Example 11] | 600
* CCOc1ccc(-c2cc(C(=O)O)c3nc[nH]c3c2)c(Cl)c1 [Example 4] | 4370

====

# targetUnderTest: human cGAS (residues 161-522) (Homo sapiens (Human), UniProt Q8N884)
# assayDetails: Malachite Green assay to measure cGAS activity (coupled enzymatic assay, phosphate detection)
# protocolConditions: recombinant human cGAS (residues 161-522) 25 nM, 80 μM GTP, 100 nM ISD, 4 hour at RT, absorbance 620 nm
pIC50: −log10 of the molar value.
assayReadout: pIC50

- Cc1ccc(-c2cc(C(=O)O)c3nc(CN(C)c4ccccc4)[nH]c3c2)c(Cl)c1: 5.91
- Cc1ccc(-c2cc(C(=O)O)c3nc(CN4CCOCC4)[nH]c3c2)c(Cl)c1: 6.46
- O=C(O)c1cc(-c2ccc(C3CC3)cc2Cl)cc2[nH]cnc12: 5.33
- Cc1ccc(-c2cc(C(=O)O)c3nc(CN4CCN5C(=O)CCC5C4)[nH]c3c2)c(Cl)c1 (centres unmarked): 6.59
- Cc1ccc(-c2cc(C(=O)O)c3nc(CN4CCN(Cc5ccccc5)C(=O)C4)[nH]c3c2)c(Cl)c1: 6.29
- Cc1ccc(-c2cc(C(=O)O)c3nc(CN4CCC(F)(F)CC4)[nH]c3c2)c(Cl)c1: 6.59
- Cc1cc(Cl)c(-c2cc(C(=O)O)c3nc[nH]c3c2)cc1F: 6.27
- O=C(O)c1cc(-c2ccc(C(F)(F)F)cc2Cl)cc2[nH]cnc12: 5.49
- Cc1ccc(-c2cc(C(=O)O)c3nc(CN4CCC(O)CC4)[nH]c3c2)c(Cl)c1: 6.39
- Cc1ccc(-c2cc(C(=O)O)c3nc(CN4CCN(CC(F)(F)F)CC4)[nH]c3c2)c(Cl)c1: 6.23
- Cc1ccc(-c2cc(C(=O)O)c3nc(CN4CCCCC4)[nH]c3c2)c(Cl)c1: 6.44
- Cc1ccc(-c2cc(C(=O)O)c3nc(C)[nH]c3c2)c(Cl)c1: 5.62
- Cc1ccc(-c2cc(C(=O)O)c3nc[nH]c3c2)c(Cl)c1: 6.26
- Cc1ccc(-c2cc(C(=O)O)c3nc(CN4CCN(C)CC4)[nH]c3c2)c(Cl)c1: 6.89
- CC(=O)N1CCN(Cc2nc3c(C(=O)O)cc(-c4ccc(C)cc4Cl)cc3[nH]2)CC1: 5.82
- Cc1ccc(-c2cc(C(=O)O)c3nc(CN4CCN(C5CC5)CC4)[nH]c3c2)c(Cl)c1: 6.42
- Cc1ccc(-c2cc(C(=O)O)c3nc(CO)[nH]c3c2)c(Cl)c1: 6.26
